Each recorded value in this set is attributed to patent US20260265221A1.

Assay: In vivo pharmacokinetic experiment in CD-1 mice
Conditions: mouse, plasma, iv; Injection (1 mg/kg), CD-1 female mice
Hi! Just check whether AUC(0-t) is below 3000 ng·h/mL. Below gives true, equal or above gives false.

[
  {
    "COMPOUND": "Cc1nc2ccc(CN3CCN(c4ccc(C(=O)N[C@H]5C[C@H]5F)nc4F)CC3)cc2[nH]c1=O",
    "LABEL": "false"
  },
  {
    "COMPOUND": "Cc1nc2ccc(CN3CCN(c4ccc(C(=O)N[C@@H]5C[C@@H]5F)nc4F)CC3)cc2[nH]c1=O",
    "LABEL": "true"
  },
  {
    "COMPOUND": "Cc1nc2ccc(CN3CCN(c4ccc(C(=O)NC5CC5)nc4F)CC3)c(F)c2[nH]c1=O",
    "LABEL": "true"
  },
  {
    "COMPOUND": "CNC(=O)c1ccc(N2CCN(Cc3ccc4nc(C)c(=O)[nH]c4c3F)CC2)c(F)n1 [AZD9574, reference compound]",
    "LABEL": "true"
  },
  {
    "COMPOUND": "Cc1nc2ccc(CN3CCN(c4ccc(C(=O)NC5CC5)nc4F)CC3)cc2[nH]c1=O",
    "LABEL": "false"
  }
]

---

Experiment: In vivo pharmacokinetic experiment in CD-1 mice
Conditions: mouse, plasma; Oral administration (10 mg/kg), CD-1 female mice

[
  {
    "COMPOUND": "CNC(=O)c1ccc(N2CCN(Cc3ccc4nc(C)c(=O)[nH]c4c3F)CC2)c(F)n1 [AZD9574, reference compound]",
    "Tmax [min]": 30
  },
  {
    "COMPOUND": "Cc1nc2ccc(CN3CCN(c4ccc(C(=O)N[C@@H]5C[C@@H]5F)nc4F)CC3)cc2[nH]c1=O",
    "Tmax [min]": 30
  },
  {
    "COMPOUND": "Cc1nc2ccc(CN3CCN(c4ccc(C(=O)NC5CC5)nc4F)CC3)c(F)c2[nH]c1=O",
    "Tmax [min]": 10.2
  },
  {
    "COMPOUND": "Cc1nc2ccc(CN3CCN(c4ccc(C(=O)N[C@H]5C[C@H]5F)nc4F)CC3)cc2[nH]c1=O",
    "Tmax [min]": 10.2
  },
  {
    "COMPOUND": "Cc1nc2ccc(CN3CCN(c4ccc(C(=O)NC5CC5)nc4F)CC3)cc2[nH]c1=O",
    "Tmax [min]": 4.8
  }
]

---

Quick list: bioavailability per entry.
Assay: In vivo pharmacokinetic experiment in CD-1 mice
Settings: mouse, plasma; Oral administration (10 mg/kg), CD-1 female mice
RESULT TYPE: bioavailability (%)

[
  {
    "COMPOUND": "CNC(=O)c1ccc(N2CCN(Cc3ccc4nc(C)c(=O)[nH]c4c3F)CC2)c(F)n1 [AZD9574, reference compound]",
    "RESULT TYPE": "bioavailability",
    "EXPERIMENTAL RESULT": 99.5
  },
  {
    "COMPOUND": "Cc1nc2ccc(CN3CCN(c4ccc(C(=O)NC5CC5)nc4F)CC3)cc2[nH]c1=O",
    "RESULT TYPE": "bioavailability",
    "EXPERIMENTAL RESULT": 192
  },
  {
    "COMPOUND": "Cc1nc2ccc(CN3CCN(c4ccc(C(=O)NC5CC5)nc4F)CC3)c(F)c2[nH]c1=O",
    "RESULT TYPE": "bioavailability",
    "EXPERIMENTAL RESULT": 93
  },
  {
    "COMPOUND": "Cc1nc2ccc(CN3CCN(c4ccc(C(=O)N[C@@H]5C[C@@H]5F)nc4F)CC3)cc2[nH]c1=O",
    "RESULT TYPE": "bioavailability",
    "EXPERIMENTAL RESULT": 146
  },
  {
    "COMPOUND": "Cc1nc2ccc(CN3CCN(c4ccc(C(=O)N[C@H]5C[C@H]5F)nc4F)CC3)cc2[nH]c1=O",
    "RESULT TYPE": "bioavailability",
    "EXPERIMENTAL RESULT": 166
  }
]
